subject of test: T1, IL-1-R intracellular ligand protein encoded by clone 14w (interaction trap prey) (human, UniProt P17655 450-700)
T1 construct: Prey fusion expressed from pJG4-5 in yeast
T1 sequence: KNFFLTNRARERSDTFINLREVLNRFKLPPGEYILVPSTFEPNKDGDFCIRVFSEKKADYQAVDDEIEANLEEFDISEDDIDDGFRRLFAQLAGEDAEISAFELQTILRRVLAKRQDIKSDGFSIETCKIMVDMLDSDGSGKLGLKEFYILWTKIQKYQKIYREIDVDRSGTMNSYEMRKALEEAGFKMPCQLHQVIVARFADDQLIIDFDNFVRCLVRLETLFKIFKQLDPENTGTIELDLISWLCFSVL
procedure details: yeast interaction trap, LacZ blueness on plates
Ends that are not written are not given here.
quantity: binding result

- IL-1 receptor p80 (477-527) mutant bait R518K (receptor, human, UniProt P14778 494-544, looked up, also: fused to LexA (pEG202 bait), residues not given here, range 477-527; not shown: LexA, fusion partner of baits made in vector pEG202) QDYEKMPESIKFIKQKHGAIRWSGDFTQGPQSAKTRFWKNVKYHMPVQRRS: binds
- IL-1 receptor p80 (type I) amino acids 477 to 527, wild-type bait from plasmid EG202-IL1R (477-527) (receptor, human, UniProt P14778 494-544, looked up, also: fused to LexA (pEG202 bait), residues not given here, range 477-527; positions may be shifted against the UniProt entry; also called WT; original bait; not shown: LexA, fusion partner of baits made in vector pEG202) QDYEKMPESIKFIKQKHGAIRWSGDFTQGPQSAKTRFWKNVRYHMPVQRRS: binds
- IL-1 receptor p80 (477-527) mutant bait Y519S (receptor, human, UniProt P14778 494-544, looked up, also: fused to LexA (pEG202 bait), residues not given here, range 477-527; not shown: LexA, fusion partner of baits made in vector pEG202) QDYEKMPESIKFIKQKHGAIRWSGDFTQGPQSAKTRFWKNVRSHMPVQRRS: binds
